Assay: Pharmacokinetics after single intravenous and oral administration
Assay type: in vivo
Details: Sprague Dawley, plasma; rat, PO, 10 mg/kg
Method: The pharmacokinetics of XMU-MP-7 were determined following single intravenous and oral administration in Sprague Dawley rat (N = 3/each) at the dose indicated. Blood samples were collected at 0.08, 0.25, 0.5, 1, 2, 4, 8 & 24 hr (IV) & 0.25, 0.5, 1, 2, 4, 6, 8 & 24 hr (PO) post dose. Then the samples were quantified by LC-MS/MS, and data analysis was conducted using WinNonlin V6.3. […]
Readout type: AUC(0-inf) (ng·h/mL)
Numeric answer only, unit ng·h/mL assumed.

Please give the measured AUC(0-inf) for this compound: COc1ccc(C(=O)Nc2cccc(C(F)(F)F)c2)cc1Nc1nc(-c2cccnc2)c2[nH]ccc2n1
2210

* * *

Experiment: Pharmacokinetics after single intravenous and oral administration
Format: in vivo
Conditions: Sprague Dawley, plasma; rat, PO, 10 mg/kg
Readout type: Cmax (ng/mL)
Numeric answer only, unit ng/mL assumed.

Please give the measured Cmax for this molecule: COc1ccc(C(=O)Nc2cccc(C(F)(F)F)c2)cc1Nc1nc(-c2cccnc2)c2[nH]ccc2n1 [XMU-MP-7]
429

* * *

Experiment: Antiproliferation (MTS) assay, cytotoxicity
Type: cell-based
Conditions: African green monkey, Vero E6 cells, 48 h, n = 3
Overview of reported CC50 at 48 h across a group of compounds:
Numeric answer only, unit µM assumed.

Worked set:
* Cc1cccc(/C=N/Nc2cc(N3CCOCC3)nc(OCCc3ccccn3)n2)c1 | 41.8
* CCN(CC)CCCC(C)Nc1ccnc2cc(Cl)ccc12 (stereo not shown) | 54.8

Now for a further compound.
Please give the measured CC50 at 48 h for this compound: Cc1ccc(NC(=O)c2cccc(C(F)(F)F)c2)cc1Nc1nc(-c2ccncc2)c2[nH]ccc2n1
51.7

* * *

Assay: Pharmacokinetics after single intravenous and oral administration
Type: in vivo
Settings: Sprague Dawley, plasma; rat, PO, 10 mg/kg; read-out: MRT(0-∞)
Readout type: MRT inf (h)
Numeric answer only, unit h assumed.

Please give the measured MRT inf for this compound: COc1ccc(C(=O)Nc2cccc(C(F)(F)F)c2)cc1Nc1nc(-c2cccnc2)c2[nH]ccc2n1 [XMU-MP-7]
3.81

* * *

Test: Pharmacokinetics after single intravenous and oral administration
Format: in vivo
Settings: Sprague Dawley, plasma; rat, IV, 2 mg/kg
Readout type: Tmax

Please give the measured Tmax for this compound: COc1ccc(C(=O)Nc2cccc(C(F)(F)F)c2)cc1Nc1nc(-c2cccnc2)c2[nH]ccc2n1 [XMU-MP-7]
4.8 min

* * *

Test: Pharmacokinetics after single intravenous and oral administration
Type: in vivo
Settings: Sprague Dawley, plasma; rat, IV, 2 mg/kg
Readout type: Vd (L/kg)
Numeric answer only, unit L/kg assumed.

Please give the measured Vd for this compound: COc1ccc(C(=O)Nc2cccc(C(F)(F)F)c2)cc1Nc1nc(-c2cccnc2)c2[nH]ccc2n1
0.2

* * *

Test: Pharmacokinetics after single intravenous and oral administration
Format: in vivo
Conditions: Sprague Dawley, plasma; rat, PO, 10 mg/kg
Readout type: AUC(0-t) (ng·h/mL)
Numeric answer only, unit ng·h/mL assumed.

Please give the measured AUC(0-t) for this molecule: COc1ccc(C(=O)Nc2cccc(C(F)(F)F)c2)cc1Nc1nc(-c2cccnc2)c2[nH]ccc2n1
2200

* * *

Target: UniProt:Q9Y2I7
Sequence (Q9Y2I7 whole entry): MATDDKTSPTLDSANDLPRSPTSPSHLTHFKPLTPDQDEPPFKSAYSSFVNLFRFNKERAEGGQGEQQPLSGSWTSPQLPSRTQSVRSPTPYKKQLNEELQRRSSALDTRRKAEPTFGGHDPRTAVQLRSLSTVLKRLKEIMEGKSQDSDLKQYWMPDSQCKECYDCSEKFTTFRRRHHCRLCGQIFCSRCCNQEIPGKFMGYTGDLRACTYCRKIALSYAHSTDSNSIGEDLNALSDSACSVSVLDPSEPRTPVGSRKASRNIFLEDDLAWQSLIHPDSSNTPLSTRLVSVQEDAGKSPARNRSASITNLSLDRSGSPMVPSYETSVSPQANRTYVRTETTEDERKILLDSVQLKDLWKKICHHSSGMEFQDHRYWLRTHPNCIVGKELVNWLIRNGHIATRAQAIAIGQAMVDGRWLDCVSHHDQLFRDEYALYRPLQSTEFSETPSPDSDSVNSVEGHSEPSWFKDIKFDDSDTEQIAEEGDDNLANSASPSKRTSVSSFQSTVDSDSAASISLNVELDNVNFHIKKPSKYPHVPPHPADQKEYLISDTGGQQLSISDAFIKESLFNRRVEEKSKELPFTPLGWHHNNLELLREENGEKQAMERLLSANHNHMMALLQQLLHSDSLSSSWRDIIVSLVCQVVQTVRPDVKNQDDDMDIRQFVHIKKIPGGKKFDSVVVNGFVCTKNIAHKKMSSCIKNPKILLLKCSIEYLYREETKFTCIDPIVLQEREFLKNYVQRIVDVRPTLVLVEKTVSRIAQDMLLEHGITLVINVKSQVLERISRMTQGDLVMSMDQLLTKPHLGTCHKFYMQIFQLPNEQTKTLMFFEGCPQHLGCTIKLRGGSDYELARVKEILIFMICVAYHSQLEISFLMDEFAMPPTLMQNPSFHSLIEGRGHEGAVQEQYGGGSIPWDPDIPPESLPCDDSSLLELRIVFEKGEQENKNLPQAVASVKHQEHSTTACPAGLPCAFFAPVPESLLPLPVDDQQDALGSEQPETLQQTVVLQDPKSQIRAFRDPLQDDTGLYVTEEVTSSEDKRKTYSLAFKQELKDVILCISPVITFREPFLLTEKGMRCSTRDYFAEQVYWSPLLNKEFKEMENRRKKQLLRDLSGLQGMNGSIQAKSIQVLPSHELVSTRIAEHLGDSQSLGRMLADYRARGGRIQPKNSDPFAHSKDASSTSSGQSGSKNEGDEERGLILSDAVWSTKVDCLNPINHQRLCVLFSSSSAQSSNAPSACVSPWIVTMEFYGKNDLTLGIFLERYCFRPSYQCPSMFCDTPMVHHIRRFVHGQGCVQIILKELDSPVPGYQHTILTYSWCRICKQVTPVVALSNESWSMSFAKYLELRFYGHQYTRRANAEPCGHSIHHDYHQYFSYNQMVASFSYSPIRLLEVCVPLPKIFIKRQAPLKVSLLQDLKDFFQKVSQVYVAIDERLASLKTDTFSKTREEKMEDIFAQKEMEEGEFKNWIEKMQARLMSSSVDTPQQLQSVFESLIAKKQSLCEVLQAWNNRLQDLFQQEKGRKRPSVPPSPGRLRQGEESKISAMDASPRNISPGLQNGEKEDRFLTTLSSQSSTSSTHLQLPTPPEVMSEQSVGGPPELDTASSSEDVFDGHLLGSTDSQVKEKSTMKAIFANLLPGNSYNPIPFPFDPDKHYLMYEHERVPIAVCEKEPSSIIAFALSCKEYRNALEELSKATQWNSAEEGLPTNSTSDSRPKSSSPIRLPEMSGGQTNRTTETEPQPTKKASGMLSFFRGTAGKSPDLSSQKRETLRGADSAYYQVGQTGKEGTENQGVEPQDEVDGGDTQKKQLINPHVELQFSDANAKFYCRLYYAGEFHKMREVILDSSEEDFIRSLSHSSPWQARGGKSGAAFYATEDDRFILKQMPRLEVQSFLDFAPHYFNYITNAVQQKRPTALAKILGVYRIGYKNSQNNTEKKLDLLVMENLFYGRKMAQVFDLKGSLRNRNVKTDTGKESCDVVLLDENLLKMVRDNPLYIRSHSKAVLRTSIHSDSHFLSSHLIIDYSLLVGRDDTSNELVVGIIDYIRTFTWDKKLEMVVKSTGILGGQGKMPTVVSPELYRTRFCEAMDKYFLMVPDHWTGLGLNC
Readout type: pKd
Conceptually, pKd converts a concentration in mol/L into minus its log10.

Please give the measured pKd for this compound: COc1ccc(C(=O)Nc2cccc(C(F)(F)F)c2)cc1Nc1nc(-c2cccnc2)c2[nH]ccc2n1 [XMU-MP-7]
8.19
